// reported pIC50 per item
- target-entity: K103NNY181C mutant reverse transcriptase (Human immunodeficiency virus type 1 group M subtype B, UniProt P04585, K690N/Y768C)
- Construct: mutations that occur in the reverse transcriptase segment of the pol gene
- protocol-description: Reverse transcriptase enzymatic assay (PicoGreen), K103N/Y181C mutant RT
- Type: biochemical, HIV-1
- test-conditions: IC50 mut, K103N/Y181C mutant reverse transcriptase, enzymatic assay of Example 24
A value of pIC50 is the negative decimal logarithm of a concentration given in moles per litre.

O=C(CSc1nnnn1-c1ccc(C2CC2)cc1Cl)Nc1ccc(C#CC2(CN3CCCC3)CC2)cc1Cl: 7.21
CC(C)(C#Cc1ccc(NC(=O)CSc2nnnn2-c2ccc(C(C)(C)C)cc2Cl)c(Cl)c1)OCC(=O)Nc1cnccn1: 7.24
CNC(=O)NC(C)(C)C#Cc1ccc(NC(=O)CSc2nnnn2-c2ccc(C3CC3)cc2Cl)c(Cl)c1: 8.06
CC(C)(C#Cc1ccc(NC(=O)CSc2nnnn2-c2ccc(C3CC3)cc2Cl)c(Cl)c1)NC(=O)CN1CCNCC1: 7.57
CC(C)(C)c1ccc(-n2nnnc2SCC(=O)Nc2ccc(C#CCO)cc2Cl)c(Cl)c1: 7.96

pIC50 for CC(C)(C#Cc1ccc(NC(=O)CSc2nnnn2-c2ccc(C(C)(C)C)cc2Cl)c(Cl)c1)OCC(=O)NCCC(=O)O ? 7.82

Look at this compound and give its reported pIC50. CC(C)(C#Cc1ccc(NC(=O)CSc2nnnn2-c2cc(Cl)ccc2Cl)c(Cl)c1)NC(=O)c1cc[n+]([O-])cc1 7.71
